# Target desc: T1, human TF on cells (MDA-MB-231, BxPC-3 and other tumor cells with high TF expression) (human, UniProt P13726 33-295)
# T1 construct: whole, on cells; Endogenous expression on tumor cell lines; also called cell surface TF
# Test details: flow cytometry on MDA-MB-231 cells, antibody at 10 µg/mL
Each record here notes measured MFI.
Lab book: enter the figure in MFI, no units written.

Look over these answered cases.
[
  {
    "Binder": "TF-mAb-H33 (antibody, V domains shown) VH: QVQLVQSGSELKKPGASVKVSCKASGYSFISYWMNWVRQAPGQGLEWIGMIYPADSETRLNQKFKDRAVLSVDKSVSTAYLQICSLKAEDTAVYYCAREDYGSSDYWGQGTTVTVSS VL: EIVLTQSPATLSLSPGERATLSCSASSSVSYMNWYQQKPGQAPRIWIYGISNLASGIPARFSGSGSGTDFTLTISSLEPEDFAVYYCQQKSSFPWTFGGGTKVEIK",
    "Unit name": "MFI",
    "Quantitative result": 2840
  },
  {
    "Binder": "TF-mAb-H35 (antibody, V domains shown) VH: EVQLVQSGAEVKKPGESLKISCKGSGYSFTSYWMNWVRQMPGKGLEWMGMIYPADSETRLNQKFKDKATLSVDKSISTAYLQWSSLKASDTAMYYCAREDYGSSDYWGQGTTVTVSS VL: EIVLTQSPATLSLSPGERATLSCSASSSVSYMNWYQQKPGQSPRIWIYGISNLASGVPARFSGSGSGTDFTLTISSLEPEDFAVYYCQQKSSFPWTFGGGTKVEIK",
    "Unit name": "MFI",
    "Quantitative result": 3020
  }
]

Now examine the next entry.
The binder listed as TF-mAb-H39 (antibody, V domains shown) VH: EVQLVQSGAEVKKPGESLKISCKGSGYSFTSYWMNWVRQMPGKGLEWMGMIYPADSETRLNQKFKDQATLSVDKSISTAYLQWSSLKASDTAMYYCAREDYGSSDYWGQGTTVTVSS VL: DIQLTQSPSSLSASVGDRVTITCSASSSVSYMNWYQQKPGKSPKIWIYGISNLASGVPSRFSGSGSGTDFTLTISSLQPEDFATYYCQQKSSFPWTFGGGTKVEIK has a reported MFI of 3380
